substrate: [O]=[Cr](=[O])([OH])[OH]; assay: purified protein; settings: 1 mM NADH, 50 mM Tris-Cl pH 7.0, 22°C
metric name: kcat (s⁻¹)
Numbers only, in s⁻¹.

{"columns": ["protein", "metric name", "numeric readout"],
 "data": [
  ["ChrR_Pa (Pseudomonas aeruginosa PAO1) (protein) MSDDIKVLGISGSLRSGSYNSAALQEAIGLVPPGMSIELADISGIPLYNEDVYALGFPPAVERFREQIRAADALLFATPEYNYSMAGVLKNAIDWASRPPEQPFSGKPAAILGASAGRFGTARAQYHLRQTLVFLDVHPLNKPEVMISSAQNAFDAQGRLLDDKARELIQQQLQALQLWVRRLRG", "kcat", 1.5],
  ["NfsB_Vv (Vibrio vulnificus YJ016) (protein) MTIVQAAQSRYSTKAFDASRKLPEEKVAAVKELIRMSASSVNSQPWHFIVASSEEGKARIAKATQGGFAFNERKILDASHVVVFCAKTAIDEAYLLDLLESEDKDGRFADVEAKNGMHAGRSFFVNMHRFDLKDAHHWMEKQVYLNVGTLLLGASAMEIDAVPIEGFDAKVLDEEFGLREKGFTSVVIVPLGYHSEDDFNAKLPKSRWSAETVFTEI", "kcat", 0.8],
  ["NfsA_Kp (Klebsiella pneumoniae) (protein) MTPTIELLRSHRSIRHFTDAPVSDEQRAEIIASAQAASTSSFLQCTSIIRITDPALRERLVPLTGGQQHVAQAAEFWVFCADFNRHLQICPQAQLGLAEQLLIGVVDTALLAQNALTAAESLGLGGVYIGGLRNSIEAVTELLELPQHVLPLFGLCLGWPADNPDIKPRMPAAMLVHENRYQPLDNALLAEYDEQLAHYYLSRGSNARRDTWSDHIRRTIVKESRPFILDYLHKQGWATR", "kcat", 0.12],
  ["YdgI_Bs (Bacillus subtilis subsp. subtilis str. 168) (protein) MIKTNDFMEIMKGRRSIRNYDPAVKISKEEMTEILEEATTAPSSVNAQPWRFLVIDSPEGKEKLAPLASFNQTQVTTSSAVIAVFADMNNADYLEEIYSKAVELGYMPQEVKDRQIAALTAHFEKLPAQVNRETILIDGGLVSMQLMLTARAHGYDTNPIGGYDKENIAETFGLDKERYVPVMLLSIGKAADEGYASYRLPIDTIAEWK", "kcat", 0.48],
  ["MdaB_Ec (Escherichia coli K-12) (protein) SNILIINGAKKFAHSNGQLNDTLTEVADGTLRDLGHDVRIVRADSDYDVKAEVQNFLWADVVIWQMPGWWMGAPWTVKKYIDDVFTEGHGTLYASDGRTRKDPSKKYGSGGLVQGKKYMLSLTWNAPMEAFTEKDQFFHGVGVDGVYLPFHKANQFLGMEPLPTFIANDVIKMPDVPRYTEEYRKHLVEIFG", "kcat", 0.2],
  ["Frp_Vh1 (Vibrio harveyi) (protein) MNNTIETILAHRSIRKFTAVPITDEQRQTIIQAGLAASSSSMLQVVSIVRVTDSEKRNELAQFAGNQAYVESAAEFLVFCIDYQRHATINPDVQADFTELTLIGAVDSGIMAQNCLLAAESMGLGGVYIGGLRNSAAQVDELLGLPENSAVLFGMCLGHPDQNPEVKPRLPAHVVVHENQYQELNLDDIQSYDQTMQAYYASRTSNQKLSTWSQEVTGKLAGESRPHILPYLNSKGLAKR", "kcat", 0.32]
]}

As a next step, examine the protein that follows.
For the protein shown here, NfsB_Kp (Klebsiella pneumoniae subsp. pneumoniae MGH 78578) (protein) MDIVSVALKRYSTKAFDATKKLTAGEAEQLKTLLQYSPSSTNSQPWHFIVASTDEGKARVAKAASGTYVFNERKILDASHVVVFCAKTAMDDAWLQRVVDQEEADGRFATPDAKAANHKGRTFFADMHRKELKDDDQWMAKQVYLNVGNFLLGVAAMGLDAVPIEGVDFAILDEEFDLKAQGYTSLVVVPVGHHSAEDFNATLPKSRLPQSTTITEI , give the reported kcat.
0.37
